Data origin: ChEMBL document CHEMBL1914283

protocol notes: Clearance in rat at 1 mg/kg, iv
Assay type: ADME, organism-based
Parameters: dose 1 mg/kg, route intravenous
condition notes: in vivo
Could you please report measured clearance for the items listed next?
One number for each entry, in mL/min/kg.

> print(dat)
                      smiles.representation  parameter.measured  measured
1  C[C@@H]1CCCN1CCc1ccc(-c2ccc(=O)n(C)n2)cc1           clearance        12

Request: Kindly indicate its recorded clearance. Item: C[C@@H]1CCCN1CCc1ccc(-c2ccc(=O)n(-c3ccc(F)cc3)n2)cc1
Response: 21

###

Give half-life for every item shown.
protocol notes: Metabolic stability in mouse liver microsomes assessed as half life
Format: ADME, Microsome

> print(dat)
                      smiles.representation  parameter.measured  measured
1  C[C@@H]1CCCN1CCc1ccc(-c2ccc(=O)n(C)n2)cc1           half-life    25 min

Request: Please supply the value of reported half-life for the item C[C@@H]1CCCN1CCc1ccc(-c2ccc(=O)n(-c3ccc(F)cc3)n2)cc1
Response: > 40 min

###

protocol notes: Cmax in rat at 5 mg/kg, po
Type: ADME, organism-based
Set-up: dose 5 mg/kg, route oral
condition notes: in vivo
parameter measured: Cmax (ng/mL)
One number for each entry, in ng/mL.

> print(dat)
                      smiles.representation  reading.unit  measured
1  C[C@@H]1CCCN1CCc1ccc(-c2ccc(=O)n(-c3ccc(F)cc3)n2)cc1         ng/mL       255

// moving on: another record for Cmax
Request: Input C[C@@H]1CCCN1CCc1ccc(-c2ccc(=O)n(C)n2)cc1 , output reported Cmax.
Response: 18
